protocol_details: Cytotoxicity against human CEM cells
Assay type: cell-based
applied_conditions: CCRF-CEM cells
Give measured CC50 for each item. Keep answers brief.
A number alone suffices; assume µM.

Qu. Provide CC50 value for the following compound: Nc1ccn([C@@H]2C=C[C@H](CO)O2)c(=O)n1
Ans. 20

Qu. Write down CC50 measured for item Nc1ccn([C@@H]2CC[C@H](CO)O2)c(=O)n1
Ans. 70

###

protocol_details: Inhibition of HBV DNA polymerase
Parameters: species or system Hepatitis B virus
Please provide measured IC50 for the entries that follow.
Lab book: enter the figure in nM, no units written.

Qu. For the molecule O=c1nc(NO)ccn1[C@@H]1C[C@@H](O)[C@H](COP(=O)(O)OP(=O)(O)OP(=O)(O)O)O1 , give its measured IC50 value.
Ans. 6000

Qu. Supply recorded IC50 for Cc1cn([C@@H]2C[C@@H](O)[C@H](COP(=O)(O)OP(=O)(O)OP(=O)(O)O)O2)c(=O)nc1NO here.
Ans. 4000

Qu. Quote IC50 reported for O=c1nc(NO)ccn1[C@@H]1CC[C@H](COP(=O)(O)OP(=O)(O)OP(=O)(O)O)O1 please.
Ans. 990

Qu. Complete the entry with IC50 for Cc1cn([C@@H]2C=C[C@H](COP(=O)(O)OP(=O)(O)OP(=O)(O)O)O2)c(=O)nc1N
Ans. 6200

Qu. Provide IC50 value for the following molecule: Cc1cn([C@@H]2C[C@@H](N=[N+]=[N-])[C@H](COP(=O)(O)OP(=O)(O)OP(=O)(O)O)O2)c(=O)nc1N
Ans. 850

Qu. Fill in IC50 for record Cc1cn([C@@H]2C[C@@H](O)[C@H](COP(=O)(O)OP(=O)(O)OP(=O)(O)O)O2)c(=O)nc1N
Ans. 900

Qu. Note IC50 for the molecule shown: Cc1cn([C@@H]2CC[C@H](COP(=O)(O)OP(=O)(O)OP(=O)(O)O)O2)c(=O)nc1N
Ans. 6500

Qu. Item Cc1cn([C@@H]2C[C@@H](F)[C@H](COP(=O)(O)OP(=O)(O)OP(=O)(O)O)O2)c(=O)nc1N : provide IC50
Ans. 1900

Qu. Please report IC50 for the following molecule: Nc1ccn([C@@H]2CS[C@H](COP(=O)(O)OP(=O)(O)OP(=O)(O)O)O2)c(=O)n1 [LAMIVUDINE TRIPHOSPHATE]
Ans. 300

Qu. Give IC50 for the following molecule: O=c1nc(NO)ccn1[C@@H]1C=C[C@H](COP(=O)(O)OP(=O)(O)OP(=O)(O)O)O1
Ans. 210

Qu. Complete the entry with IC50 for Cc1cn([C@@H]2C[C@@H](O)[C@H](COP(=O)(O)OP(=O)(O)OP(=O)(O)O)O2)c(=O)[nH]c1=O [TELBIVUDINE 5'TRIPHOSPHATE]
Ans. 460

###

protocol_details: Cytotoxicity against human HepG2 cells after 3 days by MTT assay
Type: cell-based
property_name: CC50 at 72 h (µM)
Numeric only. Scale: µM

Qu. Provide measured CC50 at 72 h value, entry: [N-]=[N+]=N[C@@H]1C[C@@H](n2ccc(NO)nc2=O)O[C@H]1CO
Ans. 1160

Qu. Complete the entry with CC50 at 72 h for O=c1nc(NO)ccn1[C@@H]1C[C@@H](O)[C@H](CO)O1
Ans. 545

Qu. Please look at this compound and report its CC50 at 72 h: Cc1cn([C@H]2C[C@H](O)[C@@H](CO)O2)c(=O)[nH]c1=O
Ans. 2100

Qu. Output measured CC50 at 72 h for this item: Nc1ccn([C@@H]2CS[C@H](CO)O2)c(=O)n1
Ans. 1200

Qu. Quickly give me recorded CC50 at 72 h for Cc1cn([C@@H]2C[C@@H](N=[N+]=[N-])[C@H](CO)O2)c(=O)nc1N
Ans. 1750

Qu. Consider the compound Cc1cn([C@@H]2CC[C@H](CO)O2)c(=O)nc1N and give its recorded CC50 at 72 h.
Ans. 1550

Qu. Give the reported CC50 at 72 h for this compound. Cc1cn([C@@H]2C[C@@H](F)[C@H](CO)O2)c(=O)nc1N
Ans. 1800

Qu. // Input: Cc1cn([C@@H]2C[C@@H](O)[C@H](CO)O2)c(=O)nc1NO . Output its CC50 at 72 h only.
Ans. 490

Qu. Provide CC50 at 72 h value for the following compound: Cc1cn([C@@H]2C=C[C@H](CO)O2)c(=O)nc1N
Ans. 1400

Qu. Input Nc1nc(=O)n([C@@H]2CS[C@H](CO)O2)cc1F , output reported CC50 at 72 h.
Ans. 765

Qu. Look up and state reported CC50 at 72 h for O=c1nc(NO)ccn1[C@@H]1CC[C@H](CO)O1
Ans. 2250

###

Exercise: state measured CC50 at 72 h for each of the compounds provided.
protocol_details: Cytotoxicity against human HepG2 cells after 3 days by MTT assay
Assay type: cell-based
# unit: µM | format: bare number

Qu. Note CC50 at 72 h for the compound shown: Nc1ccn([C@@H]2CC[C@H](CO)O2)c(=O)n1
Ans. 85

Qu. Quick one: give measured CC50 at 72 h for O=c1nc(NO)ccn1[C@@H]1C=C[C@H](CO)O1
Ans. 2500

Qu. Report measured CC50 at 72 h; entry is O=c1nc(NO)ccn1[C@@H]1CC(F)[C@H](CO)O1 (stereo partly specified)
Ans. 820

Qu. Assign CC50 at 72 h to the following record: O=c1nc(NO)c(F)cn1[C@@H]1CS[C@H](CO)O1
Ans. 855

Qu. # return recorded CC50 at 72 h for input O=c1nc(NO)ccn1[C@@H]1CS[C@H](CO)O1
Ans. 1320

Qu. Supply reported CC50 at 72 h belonging to this compound: O=c1nc(NO)c(F)cn1[C@@H]1C[C@@H](O)[C@H](CO)O1
Ans. 920

###

protocol_details: Cytotoxicity against human HL60 cells after 3 days by MTT assay
Format: cell-based
applied_conditions: HL-60 cells
property_name: CC50 at 72 h

Qu. Item Cc1cn([C@@H]2CC[C@H](CO)O2)c(=O)nc1N : provide CC50 at 72 h
Ans. 950 µM

Qu. Give recorded CC50 at 72 h. Nc1ccn([C@@H]2CC[C@H](CO)O2)c(=O)n1
Ans. 94 µM

Qu. Indicate the recorded CC50 at 72 h value for this molecule: [N-]=[N+]=N[C@@H]1C[C@@H](n2ccc(NO)nc2=O)O[C@H]1CO
Ans. 2000 µM

Qu. Tell me CC50 at 72 h reported for Cc1cn([C@H]2C[C@H](O)[C@@H](CO)O2)c(=O)[nH]c1=O
Ans. 1760 µM

Qu. Recall and state the measured CC50 at 72 h for O=c1nc(NO)ccn1[C@@H]1CS[C@H](CO)O1 .
Ans. 1450 µM

Qu. Dear colleague, please send me the reported CC50 at 72 h for O=c1nc(NO)ccn1[C@@H]1CC(F)[C@H](CO)O1 (stereo partly drawn) when you can.
Ans. 4400 µM

Qu. Return CC50 at 72 h (reported value) for this molecule: Cc1cn([C@@H]2C[C@@H](O)[C@H](CO)O2)c(=O)nc1NO
Ans. 600 µM

Qu. Answer with reported CC50 at 72 h of O=c1nc(NO)ccn1[C@@H]1C=C[C@H](CO)O1
Ans. 3500 µM

Qu. Identify CC50 at 72 h associated with the molecule O=c1nc(NO)c(F)cn1[C@@H]1C[C@@H](O)[C@H](CO)O1
Ans. 1370 µM

Qu. Note CC50 at 72 h for the molecule shown: Cc1cn([C@@H]2C[C@@H](F)[C@H](CO)O2)c(=O)nc1N
Ans. 1650 µM

Qu. Supply measured CC50 at 72 h of O=c1nc(NO)ccn1[C@@H]1C[C@@H](O)[C@H](CO)O1 in your reply.
Ans. 460 µM

Qu. Please supply the value of reported CC50 at 72 h for the item Nc1ccn([C@@H]2CS[C@H](CO)O2)c(=O)n1
Ans. 1400 µM

Qu. Return CC50 at 72 h (reported value) for this molecule: Nc1nc(=O)n([C@@H]2CS[C@H](CO)O2)cc1F
Ans. 845 µM

Qu. Return reported CC50 at 72 h. Input molecule: Cc1cn([C@@H]2C[C@@H](O)[C@H](CO)O2)c(=O)nc1N
Ans. > 2000 µM

Qu. Determine from records and report CC50 at 72 h for Cc1cn([C@@H]2C=C[C@H](CO)O2)c(=O)nc1N
Ans. 600 µM

Qu. Complete the entry with CC50 at 72 h for O=c1nc(NO)c(F)cn1[C@@H]1CS[C@H](CO)O1
Ans. 770 µM

Qu. Respond only with CC50 at 72 h recorded for O=c1nc(NO)ccn1[C@@H]1CC[C@H](CO)O1
Ans. 1600 µM

Qu. Identify measured CC50 at 72 h associated with Cc1cn([C@@H]2C[C@@H](N=[N+]=[N-])[C@H](CO)O2)c(=O)nc1N
Ans. 1900 µM
